Reported inhibition in vivo by item:
# System: Rattus norvegicus
# experiment: Antiinflammatory activity in male Sprague-Dawley rats assessed as inhibition of carrageenan-induced rat paw edema dosed subcutaneously equimolar to 70 mg/kg, sc ibuprofen administered 1 hr before carrageenan challenge measured 3 hrs post carrageenan challenge relative to control
# Assay type: functional
# setup_conditions: route subcutaneous
The figure you give is taken to be in %; do not add the unit.

INPUT: Looking for the measured inhibition in vivo of CC(=O)Nc1c(C#N)c(-c2ccccc2)c(-c2ccccc2)n1-c1c(C)c(=O)n(-c2ccccc2)n1C , can you help?
OUTPUT: 66.5

====

# System: Rattus norvegicus
# experiment: Antiinflammatory activity in male Sprague-Dawley rats assessed as inhibition of carrageenan-induced rat paw edema dosed subcutaneously equimolar to 70 mg/kg, sc ibuprofen administered 1 hr before carrageenan challenge measured 3 hrs post carrageenan challenge relative to control
# Type: functional
# setup_conditions: route subcutaneous
Reported inhibition in vivo by item:
Entry format: amount then unit.

compound	inhibition in vivo
Cc1ccccc1Nc1ncnc2c1c(-c1ccccc1)c(-c1ccccc1)n2-c1c(C)c(=O)n(-c2ccccc2)n1C	13.3%

INPUT: Looking for the measured inhibition in vivo of Cc1c(-n2c(-c3ccccc3)c(-c3ccccc3)c3c(Nc4ccccc4)ncnc32)n(C)n(-c2ccccc2)c1=O , can you help?
OUTPUT: 13%

INPUT: Looking for the measured inhibition in vivo of Cc1c(-n2c(-c3ccccc3)c(-c3ccccc3)c3c(NN)ncnc32)n(C)n(-c2ccccc2)c1=O , can you help?
OUTPUT: 65.1%

INPUT: Looking for the measured inhibition in vivo of Cc1c(-n2c(N)c(C#N)c(-c3ccccc3)c2-c2ccccc2)n(C)n(-c2ccccc2)c1=O , can you help?
OUTPUT: 62.6%

INPUT: Looking for the measured inhibition in vivo of Cc1c(-n2c(-c3ccccc3)c(-c3ccccc3)c3c(=N)[nH]cnc32)n(C)n(-c2ccccc2)c1=O , can you help?
OUTPUT: 11.4%

INPUT: Looking for the measured inhibition in vivo of CC(C)Cc1ccc(C(C)C(=O)O)cc1 (centres undefined) [IBUPROFEN] , can you help?
OUTPUT: 60.7%

====

# Test system: Rattus norvegicus
# experiment: Antiinflammatory activity in male Sprague-Dawley rats assessed as inhibition of carrageenan-induced rat paw edema dosed subcutaneously equimolar to 70 mg/kg, sc ibuprofen administered 1 hr before carrageenan challenge measured 3 hrs post carrageenan challenge relative to control
# Assay type: functional
# setup_conditions: route subcutaneous
Reported inhibition in vivo by item:
The figure you give is taken to be in %; do not add the unit.

INPUT: Looking for the measured inhibition in vivo of Cc1c(-n2c(-c3ccccc3)c(-c3ccccc3)c3c(=S)[nH]cnc32)n(C)n(-c2ccccc2)c1=O , can you help?
OUTPUT: 73.3

INPUT: Looking for the measured inhibition in vivo of Cc1c(-n2c(-c3ccccc3)c(-c3ccccc3)c3c(N/N=C/c4ccccc4)ncnc32)n(C)n(-c2ccccc2)c1=O , can you help?
OUTPUT: 90.8

INPUT: Looking for the measured inhibition in vivo of Cc1c(-n2c(N)c(C(N)=O)c(-c3ccccc3)c2-c2ccccc2)n(C)n(-c2ccccc2)c1=O , can you help?
OUTPUT: 47.8
